Tested on: LOX IMVI
assay-procedure: NCI tumour cell line growth inhibition, 48 h
Calls of active or inactive are those of the source. Cut-off read from the data, not from the text of the source: active = GI50 up to about 1.1 µM and inactive = higher.
Parameter call: string, one of Y (active), N (inactive)

-- ask What call does the record list for S=C1NC(c2ccccc2)NC(c2ccccc2)S1 (configuration not stated) ?
-- reply N

-- ask // return assay outcome for COc1ccc(-c2oc3cc(O)cc(O)c3c(=O)c2OC)cc1 [ERMANIN]
-- reply N

-- ask Returns: the outcome recorded for O=C(N=C1N(c2ccccc2)C(=O)C(=O)N1c1ccccc1)c1ccccc1 in this assay.
-- reply N

-- ask For Cc1cccc2c1C(=O)/C(=C/c1ccccc1C(=O)O)C2 , what call appears in the results of this test?
-- reply N

-- ask # outcome recorded in this test, key = Cc1cc(S(=O)(=O)Nc2nnc3cnc4ccccc4n23)c(S)cc1Cl
-- reply N

-- ask # lookup: test call for OC1c2ccccc2C2C(O)c3ccccc3C12 (configuration not stated)
-- reply N

New cases:
-- ask For N#Cc1cc(-c2nc3c(F)cccc3s2)ccc1N , which call appears in the assay record?
-- reply N

-- ask Please let me know the test result on file for C=C1CC(COc2cc(=O)oc3ccccc23)(c2ccccc2)OC1=O (configuration not stated) .
-- reply N
